Target: human chemokine receptor 2 isoform B (Homo sapiens)
Sequence (P41597 1-360 isoform P41597-2): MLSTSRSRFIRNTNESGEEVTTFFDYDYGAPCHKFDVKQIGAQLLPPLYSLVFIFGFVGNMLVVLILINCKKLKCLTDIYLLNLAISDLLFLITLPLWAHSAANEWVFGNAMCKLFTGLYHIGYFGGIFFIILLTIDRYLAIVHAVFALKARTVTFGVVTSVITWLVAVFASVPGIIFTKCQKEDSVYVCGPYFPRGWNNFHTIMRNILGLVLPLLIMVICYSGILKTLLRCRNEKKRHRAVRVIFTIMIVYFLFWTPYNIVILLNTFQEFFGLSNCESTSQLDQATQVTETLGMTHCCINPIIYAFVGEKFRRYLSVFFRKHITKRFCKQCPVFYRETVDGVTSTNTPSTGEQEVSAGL
Assay: Calcium mobilization assay (FLIPR, CHOK1-CCR2B-A5 cells, 20 nM MCP-1)
Settings: Ca mobilisation assay, CCR2, antagonist activity vs 20 nM MCP-1
Procedure: CHOK1-CCR2B-A5 cells (from Euroscreen) stably overexpressing the human chemokine receptor 2 isoform B were cultured in Nutrient Hams F12 medium supplemented with 5% FBS, 100 U/ml penicillin, 100 μg/ml streptomycin, 400 μg/ml G418 and 5 μg/ml puromycin. […] Test compounds were added to the assay plate and agonist activity was monitored as fluorescence for 80 seconds with a FLIPR (488 nm excitation; 510-570 nm emission; Molecular Devices). […]
observable: IC50 (nM)

1. COC(=O)NC1CCCN(CCCN2CCN(C(=O)/C=C/c3ccc(Cl)c(Cl)c3)CCC2=O)C1 (racemic) [Example 256]
2. C[C@@H]1[C@H](O)CCCN1CCCN1CCN(C(=O)/C=C/c2ccc(Cl)c(Cl)c2)CCC1=O (racemic) [Example 226]
Ask | # return whichever of 1 and 2 has the smaller IC50 Write down the label attached to your selection.
Reply | 2
(2: 464 nM, 1: 1070 nM)
